test.details: 384-well plate pilot, post-Golgi transport modulator project, inhibition of yeast transport mutant growth (AID 636); also: test concentration not given here
measurement.conditions: absorbance 615 nm, about 18 h, stronger effect = higher value
Kindly state inhibition for each of the entries shown.
Only the number, expressed in %, is required.

Using the record for `O=C(O)CCNC(=O)c1ccccc1` , report its inhibition.
2.47

Query `O=c1c2ccccc2c(/C=N/n2cnnc2)c(O)n1-c1ccccc1` next
-7.7

Same lookup for CC1Cc2ccccc2N1C(=O)c1cnsn1 (centres undefined) , please.
-6.71

Then O=C(CSc1ncn[nH]1)NC1CC2CCC1C2 (centres undefined) ?
-5.34

What do you have for `O=C(c1ccc(-c2ccccc2)cc1)N1CCC(C(=O)N2CCCC2)CC1` ?
-6.67

Moving on to the next compound: `Cc1cccn2c(=O)c3cc(C(=O)NC4CCCC4)c(=N)n(C4CCCC4)c3nc12`
-8.49

What would you report for `CC(C)(Oc1ccc(Cl)cc1)C(=O)NCc1ccncc1` ?
-6.89

Lookup `CCCc1cc(=O)n2[nH]cnc2n1`
-6.22

What about this compound? `COc1ccc(-c2n[nH]c(C)c2-c2ccc(Cl)cc2)c(O)c1OC`
-0.92

Can you handle `C[C@H](CS)C(=O)N1CCC[C@H]1C(=O)O` next?
-2.47

// next record CC(=O)N1CCc2cc(S(=O)(=O)NCCC(=O)NC3CCCc4ccccc43)ccc21 (centres undefined)
-4

Now try `CCSc1nnc(NC(=O)c2cc(C)oc2C)s1` .
-3.55

Also `c1ccc(-c2csc(N3CCCCCC3)n2)cc1` ?
-0.27

Now consider `CCCCCC#CCC#CCC#CCC#CCCCC(=O)O` .
0.78

Repeat with `CCc1noc(C)c1C(=O)NCCc1ccc(OC)c(OC)c1`
-8.49

For N#CC1=C(N)N(c2ccccc2)C(c2ccccc2)C1(C#N)C#N (centres undefined) then?
-6.27

Proceed to `Cc1cc(C(=O)CSc2nc3ccccc3n2CCC#N)c(C)n1Cc1cccs1`
-5.41

Another compound to check: `CCCC(=O)Nc1cnc(NC(=O)c2cccc(F)c2)cc1C`
2.47

And `CCOc1cc2[nH]c(=O)n(CCC(=O)NCCc3ccc(OC)c(OC)c3)c(=O)c2cc1OCC` ?
-3.38

Same again, this time with COc1ccc(/C(O)=C2\C(=O)C(=O)N(c3cc(C)on3)C2c2ccccc2OC)cc1 (centres undefined)
-8.27

Same question, COc1ccccc1N1CCN(C(=O)C2CC=CCC2C(=O)O)CC1 (centres undefined) this time
-4.61

Thanks! And `CCN(CC)CCOC(=O)c1ccc(NC(=O)COc2cc(=O)n(CC)c3ccccc23)cc1` ?
-2.86

Similarly, COc1ccc(-n2nc(C(=O)NCC(=O)NCC3CCCO3)c3ccccc3c2=O)cc1 (centres undefined) ?
-0.78

Then what about the compound CCC1CCCCN1CCCNC(=O)c1ccc(CS(=O)(=O)Cc2ccccc2F)o1 (centres undefined) ?
-7.4
